Would you kindly list Activity for each of these compounds?
Target: TGF-beta receptor type-1 (Homo sapiens) (UniProt P36897)
Sequence (P36897 whole entry): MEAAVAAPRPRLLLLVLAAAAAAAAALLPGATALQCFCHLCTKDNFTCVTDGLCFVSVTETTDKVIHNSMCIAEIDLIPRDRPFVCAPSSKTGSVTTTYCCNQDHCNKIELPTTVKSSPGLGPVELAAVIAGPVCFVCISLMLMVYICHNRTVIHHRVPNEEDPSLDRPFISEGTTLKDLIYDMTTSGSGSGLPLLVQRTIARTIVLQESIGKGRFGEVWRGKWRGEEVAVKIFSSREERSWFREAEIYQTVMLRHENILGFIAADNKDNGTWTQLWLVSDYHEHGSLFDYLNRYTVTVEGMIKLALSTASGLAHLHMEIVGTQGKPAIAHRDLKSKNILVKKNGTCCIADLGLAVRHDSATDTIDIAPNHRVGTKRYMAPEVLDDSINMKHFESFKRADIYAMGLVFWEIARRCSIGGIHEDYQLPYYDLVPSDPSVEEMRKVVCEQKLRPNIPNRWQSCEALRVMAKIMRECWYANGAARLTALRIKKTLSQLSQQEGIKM
Assay: Inhibition of recombinant GST-tagged human ALK5 expressed in baculovirus infected Sf9 insect cells assessed as residual activity at 10 uM
Please don't drop the unit; write it after the number.

In the examples that follow, each entry is paired with its recorded Activity.
1. Cc1cccc(-c2nn(CC(=O)Nc3cccc(F)c3)cc2-c2ccnc(-c3ccccc3)c2)n1 ... 3%
2. Cc1cccc(-c2nn(CC(=O)Nc3ccccc3F)cc2-c2ccnc(-c3ccccc3)c2)n1 ... 20%
3. Cc1cccc(-c2nn(CC(=S)Nc3ccccc3F)cc2-c2ccnc3ccccc23)n1 ... 2%
4. Cc1cccc(-c2nn(CC(=O)Nc3ccccc3)cc2-c2ccnc3ccccc23)n1 ... 2%
5. Cc1cccc(-c2c(-c3ccnc(-c4ccccc4)c3)cnn2CC(=O)Nc2ccccc2)n1 ... 100%

Quick batch: Activity for everything below.
1. Cc1cccc(-c2c(-c3ccnc(-c4ccccc4)c3)cnn2CC(=O)Nc2ccccc2F)n1
2. Cc1cccc(-c2nn(CC(=S)Nc3cccc(F)c3)cc2-c2ccnc3ccccc23)n1
3. Cc1cccc(-c2c(-c3ccnc4ccccc34)cnn2CC(=O)Nc2ccccc2)n1
4. Cc1cccc(-c2nn(CC(=O)Nc3ccccc3F)cc2-c2ccnc3ccccc23)n1

# output
1: 102%; 2: 2%; 3: 71%; 4: 0%

Quick batch: Activity for everything below.
1. Cc1cccc(-c2c(-c3ccnc4ccccc34)cnn2CC(=O)Nc2cccc(C#N)c2)n1
2. Cc1cccc(-c2nn(CC(=O)Nc3cccc(C#N)c3)cc2-c2ccnc(-c3ccccc3)c2)n1
3. Cc1cccc(-c2nn(CC(=S)Nc3cccc(F)c3)cc2-c2ccnc(-c3ccccc3)c2)n1
4. Cc1cccc(-c2nn(CC(=O)Nc3cccc(F)c3)cc2-c2ccnc3ccccc23)n1
5. Cc1cccc(-c2nn(CC(=S)Nc3cccc(C#N)c3)cc2-c2ccnc3ccccc23)n1
6. Cc1cccc(-c2nn(CC(=S)Nc3cccc(C#N)c3)cc2-c2ccnc(-c3ccccc3)c2)n1
7. Cc1cccc(-c2c(-c3ccnc4ccccc34)cnn2CC(=O)Nc2ccccc2F)n1
8. Cc1cccc(-c2nn(CC(=S)Nc3ccccc3)cc2-c2ccnc(-c3ccccc3)c2)n1

# output
17%
18%
6%
0%
2%
12%
79%
11%

Quick batch: Activity for everything below.
1. Cc1cccc(-c2nn(CC(=S)Nc3ccccc3)cc2-c2ccnc3ccccc23)n1
2. Cc1cccc(-c2c(-c3ccnc(-c4ccccc4)c3)cnn2CC(=O)Nc2cccc(F)c2)n1
3. Cc1cccc(-c2nn(CC(=O)Nc3ccccc3)cc2-c2ccnc(-c3ccccc3)c2)n1

# output
3%
93%
12%
